System: EGFR mutant L858R Ba/F3 cells (Homo sapiens, UniProt P00533, L858R, cells depend on it)
Sequence (P00533 whole entry L858R): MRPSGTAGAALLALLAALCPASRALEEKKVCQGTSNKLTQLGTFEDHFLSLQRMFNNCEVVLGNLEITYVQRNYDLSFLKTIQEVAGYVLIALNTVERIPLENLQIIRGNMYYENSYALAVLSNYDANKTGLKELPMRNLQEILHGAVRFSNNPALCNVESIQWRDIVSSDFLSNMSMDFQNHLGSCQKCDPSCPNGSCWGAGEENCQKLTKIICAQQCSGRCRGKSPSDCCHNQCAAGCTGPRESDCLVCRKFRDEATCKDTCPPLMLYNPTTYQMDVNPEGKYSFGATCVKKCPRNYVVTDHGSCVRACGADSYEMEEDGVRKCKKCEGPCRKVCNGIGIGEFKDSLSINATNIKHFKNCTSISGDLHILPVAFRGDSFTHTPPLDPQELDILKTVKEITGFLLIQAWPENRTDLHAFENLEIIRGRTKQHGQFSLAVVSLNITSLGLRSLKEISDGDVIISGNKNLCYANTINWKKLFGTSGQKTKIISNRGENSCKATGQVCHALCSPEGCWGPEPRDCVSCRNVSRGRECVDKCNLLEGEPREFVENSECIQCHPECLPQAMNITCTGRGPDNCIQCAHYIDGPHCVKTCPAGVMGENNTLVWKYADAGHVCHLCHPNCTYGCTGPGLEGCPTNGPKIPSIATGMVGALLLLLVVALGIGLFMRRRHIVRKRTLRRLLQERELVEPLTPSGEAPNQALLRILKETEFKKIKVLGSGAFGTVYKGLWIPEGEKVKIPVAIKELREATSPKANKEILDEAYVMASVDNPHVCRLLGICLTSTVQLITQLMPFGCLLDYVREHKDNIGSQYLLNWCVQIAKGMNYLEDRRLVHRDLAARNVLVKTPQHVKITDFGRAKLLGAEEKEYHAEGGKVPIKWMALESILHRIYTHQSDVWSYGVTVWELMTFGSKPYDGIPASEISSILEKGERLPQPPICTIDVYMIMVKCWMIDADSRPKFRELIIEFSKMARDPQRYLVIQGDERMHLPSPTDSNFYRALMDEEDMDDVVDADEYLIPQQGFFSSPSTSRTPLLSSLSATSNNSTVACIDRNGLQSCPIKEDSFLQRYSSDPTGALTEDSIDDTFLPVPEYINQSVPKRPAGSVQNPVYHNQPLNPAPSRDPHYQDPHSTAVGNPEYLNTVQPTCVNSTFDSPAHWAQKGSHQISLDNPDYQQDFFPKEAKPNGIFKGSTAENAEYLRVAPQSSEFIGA
Assay: Ba/F3 cell proliferation (Cell Titer Glo), EGFR L858R
Format: cell-based, murine
Test Context: 72 hours, Table 6, read-out: L858R BaF3
Assay Endpoint: GI50

{"Molecule": "C=C(F)C(=O)N1CC[C@H](N2Cc3cnc(Nc4ccc5c(c4)CCN(C)C5)nc3N(C)C2=O)c2ccccc21", "Assay Endpoint": "GI50", "Observed Result": "< 0.1 µM"}
{"Molecule": "C=CC(=O)N1CC2(CC(N3Cc4cnc(Nc5ccc(N6CCN(C)CC6)cc5)nc4N(C)C3=O)C2)C1", "Assay Endpoint": "GI50", "Observed Result": "≥ 2.5 µM"}
{"Molecule": "C=CC(=O)N1CCC(n2c(=O)c3cnc(Nc4cnn(CCO)c4)nc3n(C)c2=O)c2ccccc21 (stereo not shown)", "Assay Endpoint": "GI50", "Observed Result": "0.1 to 0.5 µM"}
{"Molecule": "C=CC(=O)N1CCC(N2Cc3cnc(Nc4ccc(CN5CCN(C)CC5)cc4)nc3N(C)C2=O)c2ccccc21 (stereo not shown)", "Assay Endpoint": "GI50", "Observed Result": "< 0.1 µM"}
{"Molecule": "C=CC(=O)N1CC[C@H](N2Cc3cnc(Nc4ccc(N5CCN(C)CC5)cc4)nc3N(C)C2=O)[C@H](N)C1 (relative stereo)", "Assay Endpoint": "GI50", "Observed Result": "≥ 2.5 µM"}
{"Molecule": "C=C(F)C(=O)N1CCC(N2Cc3cnc(Nc4cnn(CCO)c4)nc3-n3ccnc32)c2ccccc21 (stereo not shown) [001A]", "Assay Endpoint": "GI50", "Observed Result": "≥ 2.5 µM"}
{"Molecule": "C=CC(=O)N1CCC(N2Cc3cnc(Nc4ccc(N5CCN(C)CC5)cc4)nc3N(C)C2=O)CC1", "Assay Endpoint": "GI50", "Observed Result": "≥ 2.5 µM"}

====

System: EGFR L858R/C797S Ba/F3 cells (Homo sapiens, UniProt P00533, C797S/L858R, cells depend on it)
Sequence (P00533 whole entry C797S/L858R): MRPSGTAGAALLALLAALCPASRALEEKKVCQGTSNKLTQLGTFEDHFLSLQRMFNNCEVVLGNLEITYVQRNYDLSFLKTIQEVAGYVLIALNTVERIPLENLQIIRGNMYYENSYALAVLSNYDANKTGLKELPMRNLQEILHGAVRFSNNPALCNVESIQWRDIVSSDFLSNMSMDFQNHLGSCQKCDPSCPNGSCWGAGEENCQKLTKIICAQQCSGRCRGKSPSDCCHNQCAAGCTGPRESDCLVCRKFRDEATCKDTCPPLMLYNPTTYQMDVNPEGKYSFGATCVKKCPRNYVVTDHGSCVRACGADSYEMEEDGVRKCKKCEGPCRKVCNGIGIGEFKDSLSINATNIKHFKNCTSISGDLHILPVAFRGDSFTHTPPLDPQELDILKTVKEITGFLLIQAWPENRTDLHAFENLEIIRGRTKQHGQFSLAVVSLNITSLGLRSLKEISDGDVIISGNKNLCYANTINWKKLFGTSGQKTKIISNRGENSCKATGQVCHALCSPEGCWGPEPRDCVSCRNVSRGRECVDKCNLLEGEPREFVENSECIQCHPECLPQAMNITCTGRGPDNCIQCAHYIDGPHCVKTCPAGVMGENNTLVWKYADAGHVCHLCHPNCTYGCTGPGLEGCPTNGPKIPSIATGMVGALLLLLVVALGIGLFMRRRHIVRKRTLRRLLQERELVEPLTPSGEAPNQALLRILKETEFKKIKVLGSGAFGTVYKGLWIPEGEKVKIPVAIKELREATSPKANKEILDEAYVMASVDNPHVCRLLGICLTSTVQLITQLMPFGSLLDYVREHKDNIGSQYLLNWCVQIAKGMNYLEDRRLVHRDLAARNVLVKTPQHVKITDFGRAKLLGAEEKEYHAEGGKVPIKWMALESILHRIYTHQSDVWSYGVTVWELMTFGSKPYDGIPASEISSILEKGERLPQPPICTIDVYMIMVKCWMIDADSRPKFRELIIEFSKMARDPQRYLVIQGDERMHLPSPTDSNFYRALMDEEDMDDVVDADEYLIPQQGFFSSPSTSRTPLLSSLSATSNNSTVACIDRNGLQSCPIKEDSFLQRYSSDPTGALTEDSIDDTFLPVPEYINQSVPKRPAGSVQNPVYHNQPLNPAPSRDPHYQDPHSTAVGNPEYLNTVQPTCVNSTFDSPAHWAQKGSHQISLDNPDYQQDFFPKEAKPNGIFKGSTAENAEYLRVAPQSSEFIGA
Assay: Ba/F3 cell proliferation (Cell Titer Glo), EGFR L858R/C797S
Type: cell-based, murine
Test Context: 72 hours, Table 6
Let's look at some compounds and their measured GI50.

{"Compound": "C=CC(=O)N1CCC(N2Cc3cnc(Nc4ccc(N5CCN(C)CC5)c(Cl)c4)nc3N(C)C2=O)c2ccccc21 (centres unmarked)", "GI50": "< 100 nM"}
{"Compound": "C=CC(=O)Nc1cccc2[nH]cc(CN3Cc4cnc(Nc5ccc(N6CCN(C)CC6)cc5)nc4N(C)C3=O)c12", "GI50": "≥ 2500 nM"}
{"Compound": "C=CC(=O)N1CCC(N2Cc3cnc(Nc4ccc(N5CCN(C)CC5)nc4)nc3N(C)C2=O)c2ccccc21 (centres unmarked)", "GI50": "< 100 nM"}
{"Compound": "C=CC(=O)N1CCC(N2Cc3cnc(Nc4ccc(N5CCN(C)CC5)cn4)cc3N(C)C2=O)c2ccccc21 (centres unmarked)", "GI50": "< 100 nM"}
{"Compound": "CN(C)C/C=C/C(=O)N1CCC(N2Cc3cnc(Nc4ccc(N5CCN(C)CC5)cc4)nc3N(C)C2=O)c2ccccc21 (centres unmarked)", "GI50": "500 to 2500 nM"}
{"Compound": "C=C(F)C(=O)N1CC[C@H](N2Cc3cnc(Nc4cnn(CCO)c4)nc3N(c3ccccn3)C2=O)c2ccccc21", "GI50": "500 to 2500 nM"}
{"Compound": "C=CC(=O)N1CCC(N2Cc3cnc(Nc4ccc(N5CCN(C)CC5)cn4)nc3N(C)C2=O)c2ccccc21 (centres unmarked)", "GI50": "< 100 nM"}
{"Compound": "CN1C(=O)N([C@H]2CCN(C#N)c3ccccc32)Cc2cnc(Nc3cnn(CCO)c3)nc21", "GI50": "≥ 2500 nM"}
{"Compound": "C=CC(=O)N1CCC2(N3Cc4cnc(Nc5ccc(OCCN6CCCC6)cc5)nc4N(C)C3=O)CC2C1 (centres unmarked)", "GI50": "≥ 2500 nM"}
{"Compound": "C=CC(=O)N1CCC(N2Cc3cnc(Nc4ccc(C5=CCN(C)CC5)cc4)nc3N(C)C2=O)c2ccccc21 (centres unmarked)", "GI50": "< 100 nM"}
{"Compound": "C=CC(=O)N1CC2(CC(N3Cc4cnc(Nc5ccc(N6CCN(C)CC6)cc5)nc4N(C)C3=O)C2)C1", "GI50": "≥ 2500 nM"}
{"Compound": "C=C(F)C(=O)N1CCC(N2Cc3cnc(Nc4ccc(N5CCN(C)CC5)cc4)nc3N(C)C2=O)c2ccccc21 (centres unmarked)", "GI50": "< 100 nM"}
{"Compound": "C=CC(=O)N1CCC(N2Cc3cnc(Nc4cnn(CCO)c4)nc3N(C)C2=O)c2ccccc21 (centres unmarked)", "GI50": "< 100 nM"}
{"Compound": "C=CC(=O)N1CCC(N2Cc3cnc(Nc4ccc(N5CCN(C)CC5)cc4)nc3N(C)C2=O)c2cccc(O)c21 (centres unmarked) [Compound 133]", "GI50": "< 100 nM"}

====

System: EGFR L858R/T790M (Homo sapiens, UniProt P00533, L858R/T790M)
Sequence (P00533 25-1210 T790M/L858R): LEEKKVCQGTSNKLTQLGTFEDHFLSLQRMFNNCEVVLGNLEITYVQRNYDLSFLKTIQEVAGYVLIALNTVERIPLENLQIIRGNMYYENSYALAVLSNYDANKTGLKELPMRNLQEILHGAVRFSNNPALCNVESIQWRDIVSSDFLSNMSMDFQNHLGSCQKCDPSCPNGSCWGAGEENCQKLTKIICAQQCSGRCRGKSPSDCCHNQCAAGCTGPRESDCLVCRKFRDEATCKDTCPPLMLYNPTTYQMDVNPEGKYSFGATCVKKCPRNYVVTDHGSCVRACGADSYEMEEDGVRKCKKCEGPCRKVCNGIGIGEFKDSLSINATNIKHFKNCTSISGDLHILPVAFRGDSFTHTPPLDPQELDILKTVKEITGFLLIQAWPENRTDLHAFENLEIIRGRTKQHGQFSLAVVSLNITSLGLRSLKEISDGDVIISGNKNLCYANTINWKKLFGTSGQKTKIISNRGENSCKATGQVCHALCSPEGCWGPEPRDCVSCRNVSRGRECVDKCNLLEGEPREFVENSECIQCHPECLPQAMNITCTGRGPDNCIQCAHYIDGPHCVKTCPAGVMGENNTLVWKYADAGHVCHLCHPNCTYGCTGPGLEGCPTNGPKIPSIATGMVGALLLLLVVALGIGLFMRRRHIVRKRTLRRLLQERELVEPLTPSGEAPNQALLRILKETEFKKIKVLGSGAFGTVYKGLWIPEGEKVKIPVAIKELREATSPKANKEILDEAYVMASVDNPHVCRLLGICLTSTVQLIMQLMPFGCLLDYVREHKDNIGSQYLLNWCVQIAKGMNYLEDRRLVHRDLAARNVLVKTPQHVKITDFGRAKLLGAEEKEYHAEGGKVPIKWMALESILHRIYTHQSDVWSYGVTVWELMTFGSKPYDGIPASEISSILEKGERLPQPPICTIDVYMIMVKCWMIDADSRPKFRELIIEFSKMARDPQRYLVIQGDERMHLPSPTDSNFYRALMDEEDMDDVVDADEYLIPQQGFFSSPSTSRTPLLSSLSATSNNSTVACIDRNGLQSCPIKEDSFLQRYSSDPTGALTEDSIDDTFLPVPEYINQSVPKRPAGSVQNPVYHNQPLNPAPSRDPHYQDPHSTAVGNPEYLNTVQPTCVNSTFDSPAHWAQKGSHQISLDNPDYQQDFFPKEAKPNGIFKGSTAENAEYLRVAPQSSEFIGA
Assay: EGFR biochemical assay (headed HTRF-based; method describes Z'-LYTE), L858R/T790M
Test Context: Table 4
pIC50: −log10 of the molar value.
Assay Endpoint: pIC50

{"Compound": "C=CC(=O)N1CCC12CC(N1Cc3cnc(Nc4ccc(N5CCN(C)CC5)cc4)nc3N(C)C1=O)C2 (stereo not drawn)", "Observed Result": "< 6.00"}
{"Compound": "C=CC(=O)N1CCC(N2Cc3cnc(Nc4ccc(N5CCN(C)CC5)cc4)nc3N(C)C2=O)c2cccc(OC)c21 (single isomer, unassigned) [Compound 124]", "Observed Result": "< 7.00"}
{"Compound": "C=CC(=O)Nc1cccc(N2C(=O)N(C3CCN(C(=O)C=C)c4ccccc43)Cc3cnc(Nc4ccc(N5CCN(C)CC5)cc4)nc32)c1 (stereo not drawn)", "Observed Result": 9.15}
{"Compound": "C=C(F)C(=O)N1CCC(N2Cc3cnc(Nc4cnn(CCO)c4)nc3-n3ccnc32)c2ccccc21 (stereo not drawn) [001A]", "Observed Result": "< 7.00"}
{"Compound": "C=CC(=O)N1CCC(N2Cc3cnc(Nc4ccc(N5CCN(C)CC5)cc4)nc3N(C)C2=O)c2cccc(OC)c21 (single isomer, unassigned) [Compound 123]", "Observed Result": "< 7.00"}
{"Compound": "[2H]C1(N2Cc3cnc(Nc4cnn(CCO)c4)nc3N(C)C2=O)CCN(C(=O)C=C)c2ccccc21 (stereo not drawn)", "Observed Result": "< 6.15"}

====

Let's look at some compounds and their measured GI50.
System: EGFR L858R/C797S Ba/F3 cells (Homo sapiens, UniProt P00533, C797S/L858R, cells depend on it)
Assay: Ba/F3 cell proliferation (Cell Titer Glo), EGFR L858R/C797S
Assay type: cell-based, murine
Test Context: 72 hours, Table 6

{"Compound": "C=CC(=O)N1CCC(C)(N2Cc3cnc(Nc4cnn(CCO)c4)nc3N(C)C2=O)c2ccccc21 (stereo not shown)", "GI50": "≥ 2500 nM"}
{"Compound": "C=CC(=O)N1CCC(N2Cc3cnc(Nc4ccc(N(C)CCN(C)C)cc4)nc3N(C)C2=O)c2ccccc21 (stereo not shown)", "GI50": "< 100 nM"}
{"Compound": "C=CC(=O)N1CCC(N2Cc3cnc(Nc4ccc(N5CCN(C)CC5)cc4)nc3N(C)C2=O)CC1", "GI50": "≥ 2500 nM"}
{"Compound": "C=CC(=O)N1CCC(N2Cc3cnc(Nc4ccc(C5CCN(C)CC5)cc4)nc3N(C)C2=O)c2ccccc21 (stereo not shown)", "GI50": "< 100 nM"}
{"Compound": "C=CC(=O)N1CCC(N2Cc3cnc(Nc4ccc(N5CCN(C)CC5)cc4)nc3N(C)C2=O)c2cccc(C#N)c21 (stereo not shown)", "GI50": "500 to 2500 nM"}
{"Compound": "C=CC(=O)N1CC[C@@H](N2Cc3cnc(Nc4ccc(N5CCN(C)CC5)cc4)nc3N(C)C2=O)c2ccccc21", "GI50": "< 100 nM"}
{"Compound": "C=CC(=O)N1CCC(N2Cc3cnc(Nc4ccc(N(C)C)cc4)nc3N(C)C2=O)c2ccccc21 (stereo not shown)", "GI50": "< 100 nM"}

====

System: EGFR mutant L858R Ba/F3 cells (Homo sapiens, UniProt P00533, L858R, cells depend on it)
Assay: Ba/F3 cell proliferation (Cell Titer Glo), EGFR L858R
Type: cell-based, murine
Test Context: 72 hours, Table 6, read-out: L858R BaF3
Let's look at some compounds and their measured GI50.

{"Compound": "C=CC(=O)N1CCC(N2Cc3cnc(Nc4ccc5c(c4)CCN(C)C5)nc3N(C)C2=O)c2ccccc21 (stereo not drawn)", "System": "EGFR mutant L858R Ba/F3 cells (Homo sapiens, UniProt P00533, L858R, cells depend on it)", "GI50": "< 100 nM"}
{"Compound": "C=C(F)C(=O)N1CC[C@H](N2Cc3cnc(Nc4cnn(CCO)c4)nc3N(C)C2=O)c2ccccc21", "System": "EGFR mutant L858R Ba/F3 cells (Homo sapiens, UniProt P00533, L858R, cells depend on it)", "GI50": "< 100 nM"}
{"Compound": "C/C=C(\\F)C(=O)N1CC[C@H](N2Cc3cnc(Nc4ccc(N5CCN(C)CC5)cc4)nc3N(C)C2=O)c2ccccc21", "System": "EGFR mutant L858R Ba/F3 cells (Homo sapiens, UniProt P00533, L858R, cells depend on it)", "GI50": "100 to 500 nM"}
{"Compound": "C=C(F)C(=O)N1CC[C@H](N2Cc3cnc(Nc4cnn(CCO)c4)nc3N(C)C2=O)c2cccc(OC)c21 (single isomer, unassigned)", "System": "EGFR mutant L858R Ba/F3 cells (Homo sapiens, UniProt P00533, L858R, cells depend on it)", "GI50": "≥ 2500 nM"}
{"Compound": "C=C(F)C(=O)N1CC[C@H](N2Cc3cnc(Nc4cnn(CCO)c4)nc3N(C3CCOC3)C2=O)c2ccccc21 (stereo partly drawn)", "System": "EGFR mutant L858R Ba/F3 cells (Homo sapiens, UniProt P00533, L858R, cells depend on it)", "GI50": "< 100 nM"}
{"Compound": "C=C(F)C(=O)N1CC(F)(F)C(N2Cc3cnc(Nc4cnn(CCO)c4)nc3N(C)C2=O)c2ccccc21 (stereo not drawn)", "System": "EGFR mutant L858R Ba/F3 cells (Homo sapiens, UniProt P00533, L858R, cells depend on it)", "GI50": "500 to 2500 nM"}
{"Compound": "C=CC(=O)N1CCC(N2Cc3cnc(Nc4cnn(CCO)c4)nc3N(C)C2=O)c2ccccc21 (stereo not drawn)", "System": "EGFR mutant L858R Ba/F3 cells (Homo sapiens, UniProt P00533, L858R, cells depend on it)", "GI50": "< 100 nM"}
{"Compound": "C=C1CC[C@H]2C[C@@H](N3Cc4cnc(Nc5ccc(N6CCN(C)CC6)cc5)nc4N(C)C3=O)CCN2C1=O", "System": "EGFR mutant L858R Ba/F3 cells (Homo sapiens, UniProt P00533, L858R, cells depend on it)", "GI50": "≥ 2500 nM"}
{"Compound": "C=CC(=O)N1CCC2(N3Cc4cnc(Nc5ccc(OCCN6CCCC6)cc5)nc4N(C)C3=O)CC2C1 (stereo not drawn)", "System": "EGFR mutant L858R Ba/F3 cells (Homo sapiens, UniProt P00533, L858R, cells depend on it)", "GI50": "≥ 2500 nM"}

Origin of the recorded values: patent US20240352021A1
